So I've got a bunch of compounds here, and I need their max response values.
test system: 4-diphosphocytidyl-2-C-methyl-D-erythritol kinase IspE (bacterial, species not stated); experiment: Confirmatory Assay for Inhibitors of Human Galactokinase (GALK): CDP-Me assay counterscreen for probe SAR; conditions: Kinase-Glo ATP luminescence, 1 h
Number only, in %; omit the unit.

Read off the recorded max response for O=C1CCCC2=C1C1(CCS(=O)(=O)C1)N=C(Nc1nc3ccccc3o1)N2 (stereo not given) -0.863

Read off the recorded max response for Cc1nc(Nc2nc3ccccc3o2)nc2c1C(=O)CC(C)(C)C2 -1.17

Read off the recorded max response for O=C1CCCC2=C1C(c1ccccc1Cl)N=C(Nc1nc3ccccc3o1)N2 (stereo not given) -2.1

Read off the recorded max response for O=C1CCCC2=C1C1(CCCC1)N=C(Nc1nc3ccccc3n1Cc1ccccc1)N2 4.95

Read off the recorded max response for O=C1CCC2=C1C(c1ccccc1Cl)N=C(Nc1nc3ccccc3o1)N2 (stereo not given) -0.401

Read off the recorded max response for CC1(C)CC(=O)C2=C(C1)NC(Nc1nc3ccccc3o1)=NC2c1cccc(F)c1 (stereo not given) 2.59

Read off the recorded max response for COc1cccc(C2N=C(Nc3nc4ccccc4o3)NC3=C2C(=O)CC(C)(C)C3)c1 (stereo not given) 0.986

Read off the recorded max response for O=C1CC(c2ccccc2)CC2=C1C1(CCCCC1)N=C(Nc1nc3ccccc3o1)N2 (stereo not given) 5.2

Read off the recorded max response for Cc1ccc(C2N=C(Nc3nc4ccccc4o3)NC3=C2C(=O)CC(C)(C)C3)cc1 (stereo not given) 2.37

Read off the recorded max response for O=C1CCCC2=C1C1(CCSCC1)N=C(Nc1nc3ccccc3o1)N2 -0.443
